# measured-target: T1, human monocyte chemo-attractant protein-1 (MCP-1) (human, UniProt P13500 24-99)
# T1 construct: 76-residue recombinant protein from E. coli, bought (PeproTech); also called hMCP-1(MCAF); human MCP-1
# T1 sequence (P13500 24-99): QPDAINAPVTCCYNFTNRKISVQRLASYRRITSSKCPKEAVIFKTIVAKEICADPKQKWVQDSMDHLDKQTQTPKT
# protocol-summary: ELISA, coated antigen
Overview of recorded ELISA OD for various binders
# value in OD450; strip the unit string

anti-MCP-1 mAb 3.4.1 (antibody, V domains shown) VH: QVQLVQSGAEVKKPGASVKVSCKVSGYTLTELSMHWVRQAPGKGLEWMGGFDPEDGETMYAQKFQGRVTMTEDTSTDTAYMELSSLRSEDTAVYYCATDDFWSGYFDYWGQGTLVTVSS VL: DIVMTQSPDSLAVSLDERATINCKSSQSVLYSPNQKNYLVWYQQKPGQPPKLLLYWASIRESGVPDRFSGSGSGTDFTLTISSLQAEDVAVYYCQQSYFTPWTFGQGTKVEIKR :: 1.15

# next binder below
In: May I ask what ELISA OD has been recorded for anti-MCP-1 mAb 1.8.1 (antibody, V domains shown) VH: QVQLVQSGAEVKKPGASVKVSCKVSGHIFTELSIHWVRQAPGKGLEWMGGFDPEDGETIYAQKFQGRVTMTEDTSTDTVYMELSSLRSEDTAVYYCATNDFWSGYFDYWGQGTLVTVSS VL: DIVMTQSPGSLAVSLGERATINCKSSQSILFRSNNKNYLTWYQQKPGQPPKLLIYWASIRESGVPDRFSGSGSGSNFTLTITSLQAEDVAIYYCQQYYSSPWTFGQGTKVEIKR ?
Out: 1.16
